Property: kon; scope: individual binders
Target Under Test: purified rhesus CD45 ectodomain (rhesus macaque)
Sequence (chain, as listed by the source limits assumed, form in doubt): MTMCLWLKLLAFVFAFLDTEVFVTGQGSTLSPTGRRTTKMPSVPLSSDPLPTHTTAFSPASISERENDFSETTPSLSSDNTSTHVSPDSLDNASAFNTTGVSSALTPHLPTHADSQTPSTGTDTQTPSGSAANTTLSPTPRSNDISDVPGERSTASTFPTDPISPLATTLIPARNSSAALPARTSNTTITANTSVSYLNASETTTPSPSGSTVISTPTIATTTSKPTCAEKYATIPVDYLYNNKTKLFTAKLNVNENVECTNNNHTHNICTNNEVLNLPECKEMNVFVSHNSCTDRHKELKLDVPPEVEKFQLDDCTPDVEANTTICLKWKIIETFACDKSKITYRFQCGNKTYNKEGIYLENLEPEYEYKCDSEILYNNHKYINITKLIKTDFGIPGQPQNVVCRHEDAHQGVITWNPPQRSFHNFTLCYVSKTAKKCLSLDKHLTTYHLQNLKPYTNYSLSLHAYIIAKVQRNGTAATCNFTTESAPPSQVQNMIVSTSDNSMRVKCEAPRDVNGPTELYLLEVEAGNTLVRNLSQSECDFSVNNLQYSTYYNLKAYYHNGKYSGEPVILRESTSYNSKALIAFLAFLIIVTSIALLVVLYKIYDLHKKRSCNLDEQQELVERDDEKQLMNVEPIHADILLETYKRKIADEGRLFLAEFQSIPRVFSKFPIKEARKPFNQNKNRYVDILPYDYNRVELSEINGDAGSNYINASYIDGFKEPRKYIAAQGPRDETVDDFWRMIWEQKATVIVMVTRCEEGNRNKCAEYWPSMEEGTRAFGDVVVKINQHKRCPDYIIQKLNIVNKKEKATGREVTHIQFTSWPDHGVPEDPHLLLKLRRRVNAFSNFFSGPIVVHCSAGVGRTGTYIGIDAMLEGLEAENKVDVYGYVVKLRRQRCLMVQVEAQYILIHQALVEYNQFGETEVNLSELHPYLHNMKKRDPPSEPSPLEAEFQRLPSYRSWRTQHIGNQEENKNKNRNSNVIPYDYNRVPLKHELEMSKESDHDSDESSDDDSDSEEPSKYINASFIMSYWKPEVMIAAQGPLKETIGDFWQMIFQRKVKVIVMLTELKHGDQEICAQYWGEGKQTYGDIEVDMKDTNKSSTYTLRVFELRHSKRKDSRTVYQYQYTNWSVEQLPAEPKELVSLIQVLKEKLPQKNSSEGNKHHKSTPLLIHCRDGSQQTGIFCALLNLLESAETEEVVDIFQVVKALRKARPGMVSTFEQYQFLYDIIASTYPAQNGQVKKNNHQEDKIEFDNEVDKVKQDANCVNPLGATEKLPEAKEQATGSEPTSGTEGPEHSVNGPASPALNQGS
Assay Remarks: BLI (Octet Red96), IgG on anti-human Fc sensor, 50 nM CD45 ectodomain, 1:1 fit
Please respond with the number in M⁻¹ s⁻¹ and leave the unit unwritten.

Worked cases, kon given:
Binder: Antibody 6 (Ab6) (antibody, V domains shown) VH: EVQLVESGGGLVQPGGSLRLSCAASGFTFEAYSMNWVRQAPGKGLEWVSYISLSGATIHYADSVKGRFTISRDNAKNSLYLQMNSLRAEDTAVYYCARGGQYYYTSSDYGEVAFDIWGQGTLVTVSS VL: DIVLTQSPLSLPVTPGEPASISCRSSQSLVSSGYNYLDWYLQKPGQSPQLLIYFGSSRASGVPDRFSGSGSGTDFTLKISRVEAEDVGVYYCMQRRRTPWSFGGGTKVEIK
Unit Label: M⁻¹ s⁻¹
kon: 122000

Binder: Antibody 4 (Ab4) (antibody, V domains shown) VH: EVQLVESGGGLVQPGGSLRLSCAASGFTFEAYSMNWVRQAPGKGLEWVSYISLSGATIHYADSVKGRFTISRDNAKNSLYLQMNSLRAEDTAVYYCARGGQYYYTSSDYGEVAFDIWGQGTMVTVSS VL: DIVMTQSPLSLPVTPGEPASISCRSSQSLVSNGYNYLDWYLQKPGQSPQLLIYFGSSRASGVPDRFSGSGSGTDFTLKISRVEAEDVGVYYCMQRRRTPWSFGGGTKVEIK
Unit Label: M⁻¹ s⁻¹
kon: 118000

Req: Let me know recorded kon for Antibody 7 (Ab7) (antibody, V domains shown) VH: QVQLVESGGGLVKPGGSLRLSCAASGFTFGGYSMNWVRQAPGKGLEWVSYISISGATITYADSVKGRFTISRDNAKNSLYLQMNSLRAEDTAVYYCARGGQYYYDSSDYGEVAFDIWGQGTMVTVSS VL: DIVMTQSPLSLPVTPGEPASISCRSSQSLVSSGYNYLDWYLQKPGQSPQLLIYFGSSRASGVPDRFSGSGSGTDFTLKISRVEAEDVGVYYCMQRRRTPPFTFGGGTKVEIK , thanks.
Resp: 124000
